System: Plasmodium falciparum
Experiment: Screen against P. falciparum Asexual Blood Stage (ABS), at 5uM
Assay type: functional, Dd2
Settings: tested at 5 uM
Out of some 65,000 compounds screened, about 2,100 (3.2%) showed an effect of 50% or more. The median lay at about -52%. This excerpt belongs to a sample that is enriched for strong results.
QUANTITY KIND: INHIBITION (%)
Numbers only, in %.

MOLECULE	TESTED SYSTEM	UNIT STRING	INHIBITION
COC(=O)c1ccc(CNCc2cn(C)nc2C)cc1	Plasmodium falciparum	%	-133
O=C(c1cccc(-n2cccn2)c1)N1CCCOC(Cn2cccn2)C1 (centres undefined)	Plasmodium falciparum	%	-33.9
CCC(CC)C(=O)NCC1(NC(C)c2ccccc2)CCOCC1 (centres undefined)	Plasmodium falciparum	%	-6.09

Now look at this one.
Input: Annotate the molecule CC1(c2ccccc2)CCCN(Cc2nnc(-c3cccnc3)o2)C1 (centres undefined) with its measured INHIBITION.
Output: -119

====

Assign INHIBITION to each entry below.
Tested on: Plasmodium falciparum
Experiment: Screen against P. falciparum Asexual Blood Stage (ABS), at 5uM
Assay type: functional, Dd2
Conditions: tested at 5 uM
Hit rate of the full screen: of about 65,000 compounds, about 2,100 (3.2%) showed an effect of 50% or more. The median lay at about -52%. This is one part of a sample in which strong results are shown more often than they occur.
Numbers only, in %.

Okay, here is my list. What is INHIBITION for each of these?
1. O=C([C@H]1C[C@@H]2CCN(c3cccc(F)c3)C[C@H]2O1)N1CCCC1
2. N#CC1(C(=O)N2C[C@H](Nc3ncccn3)[C@@H](C3CC3)C2)CCOCC1
3. CN1CCCN(c2nccc(-c3cc(C(=O)O)ccn3)n2)CC1
4. Cn1cc([C@@H]2CN(S(C)(=O)=O)C[C@H]2N)c2ccncc21
5. CC(C)C(NCc1ccc(Cn2cncn2)cc1)c1ccc(F)cn1 (centres undefined)

Output:
1: -20.3; 2: -92.4; 3: -113; 4: 16.8; 5: -59.5

Okay, here is my list. What is INHIBITION for each of these?
1. CN1CCCC1c1cc2cccnc2n1Cc1ccc(F)cc1 (centres undefined)
2. CC(=O)Nc1ccc(-n2cncn2)c(F)c1
3. CC(C)[C@@H]1CN(Cc2ccsc2)C[C@H]1NS(=O)(=O)N(C)C

Output:
1. 69.9
2. 47.2
3. 66.3

Okay, here is my list. What is INHIBITION for each of these?
1. O=C(Cc1ccccn1)N1CCc2c(O)nc(-c3cnccn3)nc2C1
2. c1cnc2c(c1)cc([C@H]1CCCO1)n2CCN1CCCC1
3. Cc1ccc(CN2Cc3nccn3CC(CN(C)C)C2)s1 (centres undefined)

Output:
-157
21.4
-47.7

Okay, here is my list. What is INHIBITION for each of these?
1. c1cnc2c(c1)cc(C1CCOCC1)n2CCN1CCOCC1
2. Fc1ccccc1-c1nccnc1C1CCCNC1 (centres undefined)
3. c1cc(CNCCc2cn3ccccc3n2)c2c(c1)OCCCO2
4. COc1ccc(CN2CCc3ncnc(OC(C)C)c3CC2)cc1

Output:
[-7.49, 10.7, -57.2, 63.6]

Okay, here is my list. What is INHIBITION for each of these?
1. Cc1nccc(N[C@H]2CN(CC(C)(C)N3CCOCC3)C[C@@H]2C2CC2)n1
2. CCOC(=O)[C@]12CCCN(Cc3cccs3)C[C@H]1CN(CC(C)C)C2
3. Cn1cc([C@@H]2CN(S(=O)(=O)c3ccccc3F)C[C@H]2N)c2ccncc21

Output:
[63.5, 14.6, 63.4]

Okay, here is my list. What is INHIBITION for each of these?
1. COc1cccc(CNCCNS(=O)(=O)Cc2ccccc2)c1
2. CCN(CC)CC1CN(Cc2ccc(C)s2)Cc2nccn2C1 (centres undefined)

Output:
55.5
66.7

Okay, here is my list. What is INHIBITION for each of these?
1. OCCNc1nccc(-c2c[nH]nc2-c2ccncc2)n1
2. Fc1cccc(-c2nccnc2C2CCCNC2)c1 (centres undefined)
3. CC(C)[C@H]1CN(C2Cc3ccccc3C2)C[C@@H]1NS(C)(=O)=O
4. Cn1cc([C@@H]2CN(S(=O)(=O)c3cccnc3)C[C@H]2N)c2ccncc21
5. Cc1cccn2cc(CNCc3cccc4c3OCCCO4)nc12
6. Cc1cc(N[C@H]2CN(CC(C)(C)N3CCOCC3)C[C@@H]2C2CC2)ncn1

Output:
1: -56.1; 2: 14.9; 3: 34.6; 4: -21.6; 5: 53.7; 6: 48.9

Okay, here is my list. What is INHIBITION for each of these?
1. Cc1ncc(-c2ccnc(N3CCC[C@@H]3CO)n2)c(-c2cccnc2)n1
2. Cc1nc(CN2C[C@@H](NS(=O)(=O)N(C)C)[C@H](C(C)C)C2)cs1
3. CC(=O)N(c1ccc(C)cc1)c1nc(CN2CCCCC2C)cs1 (centres undefined)
4. CCCC(NC(=O)c1ccc(OC)cc1C)c1nnn[nH]1 (centres undefined)
5. CC(C)C(NCc1ccc(Cn2cncn2)cc1)c1ccccc1 (centres undefined)
6. CC(C)Oc1ncnc2c1CCN(Cc1ccco1)CC2

Output:
-23.8
19.1
61.8
-54.4
50.1
61.2

Okay, here is my list. What is INHIBITION for each of these?
1. COc1cccc(OCCNS(=O)(=O)Cc2ccccc2)c1
2. COc1ccc(Cn2c(C3CCNCC3)cc3cccnc32)cc1

Output:
1: -91.8; 2: 66.9

====

System: Plasmodium falciparum
Experiment: Screen against P. falciparum Asexual Blood Stage (ABS), at 5uM
Assay type: functional, Dd2
Details: tested at 5 uM
Among all 65,000 compounds or so, about 2,100 (3.2%) showed an effect of 50% or more. The median lay at about -52%. Shown is part of a subset that was picked to be rich in strong results.
Assign INHIBITION to each entry below.
Answers are plain numbers, in %.

Answered cases to consult:
COMPOUND	QUANTITY KIND	UNIT STRING	REPORTED RESULT
COc1cc(C(C)=O)ccc1OCCNCc1ccco1	INHIBITION	%	1.68
Cc1nc(C2CCCN2Cc2nnc(C3CC3)o2)no1 (stereo not drawn)	INHIBITION	%	-171
Cc1ccc(N2CCCC(NCc3nc(C)c(C)o3)C2)nn1 (stereo not drawn)	INHIBITION	%	-26.7

Okay, here is my list. What is INHIBITION for each of these?
1. COc1cc(CNCc2ccco2)ccc1OCCO
2. COc1ccc(CNC2CCN(c3ccccc3)C2)cc1O (stereo not drawn)

Output:
1: -66.2; 2: 40.9

====

Test system: Plasmodium falciparum
Experiment: Screen against P. falciparum Asexual Blood Stage (ABS), at 5uM
Format: functional, Dd2
Conditions: tested at 5 uM
The campaign covered roughly 65,000 compounds. About 2,100 (3.2%) showed an effect of 50% or more. The median lay at about -52%. The full list was thinned out, with strong results kept by preference.
Assign INHIBITION to each entry below.
Answers are plain numbers, in %.

Answered cases to consult:
MOLECULE	UNIT STRING	REPORTED RESULT
Cc1cccc(OCCNC(=O)CN2CCCC2c2noc(C)n2)c1 (stereo unspecified)	%	31.6
O=C(CCc1ccsc1)NCC1CCN(Cc2cccs2)CC1	%	59.5
CCC(C)NC(=O)NCCC(=O)N1CCN(c2ccccn2)CC1 (stereo unspecified)	%	-15.2
CN1CCCC1CNC(=O)CCCOc1cccc(F)c1 (stereo unspecified)	%	35.7
CN1CCCC1CNC(=O)CCCOc1ccc(I)cc1 (stereo unspecified)	%	59.8

Okay, here is my list. What is INHIBITION for each of these?
1. CCc1nc(C2CCCN2CC(=O)NCCOc2ccccc2)no1 (stereo unspecified)
2. COc1cccc(C2(C(=O)NC3CCc4nccn4C3)CCCC2)c1 (stereo unspecified)
3. Cc1cnn(CC(C)NCc2nc(-c3cccs3)no2)c1 (stereo unspecified)
4. CC(C)CC(C)NCc1cccnc1N1CCN(c2ccccn2)CC1 (stereo unspecified)
5. COCc1nn(C)c2c1CN(Cc1cnn(C)c1)CC2
6. CN1CCO[C@@H]2CN(S(=O)(=O)c3cccs3)CC[C@@H]2C1

Output:
58.6
53.3
-73.4
56.6
-6.19
-22.2

Okay, here is my list. What is INHIBITION for each of these?
1. CC(=O)N1CCO[C@@H]2CN(S(=O)(=O)c3ccccc3F)C[C@@H]2C1
2. CCc1ccccc1Nc1noc2c1CN(C(=O)CNC(C)=O)CC2
3. CS(=O)(=O)C1(C(=O)NC2CCc3nccn3C2)CCCC1 (stereo unspecified)

Output:
1: -67.6; 2: 45.1; 3: -105
